biological target: BTK (Homo sapiens); construct: The GM01501.3 cell line endogenously expresses BTK with a HiBiT fusion tag via CRISPR knock-in at its C-terminal region; endogenous in cells; host or cells: GM01501.3 (GM01501 cells engineered by CRISPR knock-in of HiBiT at the BTK locus); assay: BTK degradation assay using the HiBiT Method (Nano-Glo HiBiT Lytic Assay, GM01501.3 cells); assay type: cell-based; conditions: HiBiT Degradation on GM01501.3 BTK @ 6 hours
Sequence (Q06187 whole entry, the tested form may be a part): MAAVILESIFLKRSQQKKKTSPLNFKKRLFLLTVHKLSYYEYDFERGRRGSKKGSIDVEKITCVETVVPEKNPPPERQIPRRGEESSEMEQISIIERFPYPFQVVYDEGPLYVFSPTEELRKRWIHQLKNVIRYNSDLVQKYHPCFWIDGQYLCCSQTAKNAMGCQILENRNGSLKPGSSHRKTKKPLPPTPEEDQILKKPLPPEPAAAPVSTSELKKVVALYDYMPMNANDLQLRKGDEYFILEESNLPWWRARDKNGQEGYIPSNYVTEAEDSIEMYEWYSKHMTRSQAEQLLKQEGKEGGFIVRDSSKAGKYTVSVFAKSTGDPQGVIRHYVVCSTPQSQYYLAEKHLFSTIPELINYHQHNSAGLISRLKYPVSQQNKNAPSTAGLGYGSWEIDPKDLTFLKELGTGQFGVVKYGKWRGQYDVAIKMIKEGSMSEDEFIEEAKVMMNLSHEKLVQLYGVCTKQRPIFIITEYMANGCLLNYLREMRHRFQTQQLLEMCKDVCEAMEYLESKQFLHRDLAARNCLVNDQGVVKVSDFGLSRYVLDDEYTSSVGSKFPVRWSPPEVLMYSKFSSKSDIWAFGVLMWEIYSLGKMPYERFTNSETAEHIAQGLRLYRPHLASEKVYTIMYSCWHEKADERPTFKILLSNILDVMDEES
READOUT: DC50

Known DC50 results, listed for orientation:
Cc1cc(-c2ccnc3nn(CCCCN4CCC(c5ccc(NC6CCC(=O)NC6=O)cc5)CC4)cc23)ccc1CNC(=O)c1noc(C(C)(C)C)n1 (stereo not drawn)
> 1000 nM
CC(C)(C)c1nc(C(=O)NCc2ccc(-c3ncnn4cc(-c5ccc(CN6CCN(Cc7ccc(OC8CCC(=O)NC8=O)cc7)CC6)cn5)cc34)cc2F)no1 (stereo not drawn)
< 100 nM
Cc1cc(-c2ncnn3cc(-c4ccc(CN5CCC(c6ccc(NC7CCC(=O)NC7=O)cc6)CC5)cc4C)cc23)ccc1CNC(=O)c1noc(C(C)(C)C)n1 (stereo not drawn)
< 100 nM

# input Write down DC50 measured for item Cc1cc(-c2ncnn3cc(-c4ccc(CN5CCC(c6ccc(NC7CCC(=O)NC7=O)cc6)CC5)cc4)cc23)ccc1CNC(=O)c1ncc(C(C)C)cc1F (stereo not drawn)
# output < 100 nM

# input Write down DC50 measured for item Cc1cc(-c2ncnn3cc(-c4cccc5c(CN6CCC(c7ccc(C8CCC(=O)NC8=O)cc7)CC6)n(C)nc45)cc23)ccc1CNC(=O)c1noc(C(C)(C)C)n1 (stereo not drawn)
# output 100 to 500 nM

# input Write down DC50 measured for item Cc1cc(-c2ncnn3cc(CCN4CCC(c5ccc6c(N7CCC(=O)NC7=O)cnn6c5)CC4)cc23)ccc1CNC(=O)c1noc(C(C)(C)C)n1
# output < 100 nM
